SUBJECT_OF_TEST: T1, mouse folate receptor alpha (mFRα), recombinant protein (mouse, UniProt P35846 25-232)
T1 construct: Bought recombinant proteins (e.g. biotinylated, Acro Biosystems FO1-M82E9); also called mFOLR1; Ms FOLR1
PROTOCOL_TEXT: BLI, biotinylated FOLR1 on streptavidin biosensors
The entries below are paired with their reported Fold to 2HF042 (koff).
A bare number is all that is needed in reply.

2HFO9(I51V)-NT (VHH, not shown: neurotensin tridecapeptide (NT) and any linker or tags of the fusion) VHH: QVQLQESGGGLVQAGGSLRLSCAASGSGFSGMIMGWYRQAPGKQRELVATVTSGGTTNYADSVKGRFTISRDNAKNTVLLQMNSLKPEDTAVYYCNAHFPGIYWGKGTQVTVSS: 0.2

Kindly consider the entry below.
**Query** Input 2HFO9 (I51V,G54H)-NT (VHH, not shown: neurotensin tridecapeptide (NT) and any linker or tags of the fusion) VHH: QVQLQESGGGLVQAGGSLRLSCAASGSGFSGMIMGWYRQAPGKQRELVATVTSHGTTNYADSVKGRFTISRDNAKNTVLLQMNSLKPEDTAVYYCNAHFPGIYWGKGTQVTVSS , output reported Fold to 2HF042 (koff).
**Result** 0.9
